meta.source: patent US5998654A

Biological target: RARβ (Homo sapiens, UniProt P10826)
Assay: co-transfection assay, antagonist activity on RARβ
Format: cell-based
Design: expressed in transfected cells; host or cells: CV-1 cells (African green monkey kidney)
Conditions: CV-1 cells, in presence of known RAR agonist TTNPB
// reported efficacy of antagonist, % of maximal inhibition, RARβ (in parentheses after IC50) for each item listed
property name: efficacy of antagonist, % of maximal inhibition, RARβ (in parentheses after IC50)

| molecular string | result |
| --- | --- |
| CCCCOc1c(C(C)(C)C)cc(/C(C)=C/C=C/C(C)=C/C(=O)O)cc1C(C)(C)C | 85% |
| CCCCCOc1c(C(C)(C)C)cc(/C(C)=C/C=C/C(C)=C/C(=O)O)cc1C(C)(C)C | 86% |
| C=C(c1ccccc1)c1cc(/C(C)=C/C=C/C(C)=C/C(=O)O)cc(C(C)(C)C)c1 | 90% |
| CCCOc1c(C(C)(C)C)cc(/C(C)=C/C=C/C(C)=C/C(=O)O)cc1C(C)(C)C | 85% |

---

Record set of Kd for target or system RARβ (Homo sapiens, UniProt P10826).

| compound | Kd (nM) |
| --- | --- |
| CCCCCOc1c(C(C)(C)C)cc(/C(C)=C/C=C/C(C)=C/C(=O)O)cc1C(C)(C)C | 5 |
| COc1c(C(C)(C)C)cc(/C(C)=C/C=C/C(C)=C/C(=O)O)cc1C(C)(C)C [A, reference compound] | 0.4 |

---

Target: RARβ (Homo sapiens)
Sequence (P10826 1-448 isoform P10826-2): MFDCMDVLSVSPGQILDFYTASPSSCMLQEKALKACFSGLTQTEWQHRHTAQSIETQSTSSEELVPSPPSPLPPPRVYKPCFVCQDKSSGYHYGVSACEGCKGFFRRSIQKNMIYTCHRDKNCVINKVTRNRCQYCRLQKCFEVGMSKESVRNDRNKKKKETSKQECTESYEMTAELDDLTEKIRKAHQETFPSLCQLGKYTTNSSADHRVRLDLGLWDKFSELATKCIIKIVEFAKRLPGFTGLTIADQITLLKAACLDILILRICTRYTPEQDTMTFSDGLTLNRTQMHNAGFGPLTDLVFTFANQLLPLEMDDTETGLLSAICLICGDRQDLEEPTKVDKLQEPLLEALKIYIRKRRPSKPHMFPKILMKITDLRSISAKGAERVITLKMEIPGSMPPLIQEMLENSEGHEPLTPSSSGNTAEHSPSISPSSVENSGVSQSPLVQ
Assay: co-transfection assay, antagonist activity on RARβ
Details: CV-1 cells, in presence of known RAR agonist TTNPB; read-out: IC50 antagonist potency, RARβ
// reported IC50 for each item listed

| molecular string | IC50 / nM |
| --- | --- |
| CCCCCOc1c(C(C)(C)C)cc(/C(C)=C/C=C/C(C)=C/C(=O)O)cc1C(C)(C)C | 17 |
| C=C(c1ccccc1)c1cc(/C(C)=C/C=C/C(C)=C/C(=O)O)cc(C(C)(C)C)c1 | 5 |
| CCCCOc1c(C(C)(C)C)cc(/C(C)=C/C=C/C(C)=C/C(=O)O)cc1C(C)(C)C | 4 |
| CCCOc1c(C(C)(C)C)cc(/C(C)=C/C=C/C(C)=C/C(=O)O)cc1C(C)(C)C | 1 |
